# Measurement Notes: Pharmacokinetic study after intravenous administration in control and hyperuricemic rats (plasma, urine, kidney)
# Experimental Setup: rat, kidney, intravenous, Kp, creatinine, hyperuricemic rats; individual rats and mean
Readout Type: Kp at 4 h

CN1CC(=O)NC1=N; 12

====

# Measurement Notes: Pharmacokinetic study after intravenous administration in control and hyperuricemic rats (plasma, urine, kidney)
# Experimental Setup: rat, plasma, intravenous, Plasma concentration, hyperuricemic rats, 0.5 min after iv metformin 30 mg/kg or cephalexin 10 mg/kg (creatinine endogenous), individual rat
# Lookup of reported concentration at 0.5 min keyed by entry
Readout Type: concentration at 0.5 min (µM)

CN(C)C(=N)N=C(N)N; 578
CN1CC(=O)NC1=N; 24.6

====

# Measurement Notes: Pharmacokinetic study after intravenous administration in control and hyperuricemic rats (plasma, urine, kidney)
# Experimental Setup: rat, urine, intravenous, 30 mg/kg, Urinary recovery (cumulative), control rats, 60 min after iv metformin 30 mg/kg, mean n=3
Readout Type: dose excreted at 60 min (%)

CN(C)C(=N)N=C(N)N; 55.6

====

# Measurement Notes: Pharmacokinetic study after intravenous administration in control and hyperuricemic rats (plasma, urine, kidney)
# Experimental Setup: rat, plasma, intravenous, Plasma concentration, control rats, 5 min after iv metformin 30 mg/kg or cephalexin 10 mg/kg, individual rat
Readout Type: concentration at 5 min (µM)

CN(C)C(=N)N=C(N)N; 159

====

# Measurement Notes: Pharmacokinetic study after intravenous administration in control and hyperuricemic rats (plasma, urine, kidney)
# Experimental Setup: rat, plasma, intravenous, Plasma concentration, control rats, 5 min after iv metformin 30 mg/kg or cephalexin 10 mg/kg, mean n=3
Readout Type: concentration at 5 min (µM)

CN(C)C(=N)N=C(N)N; 159

====

# Measurement Notes: Pharmacokinetic study after intravenous administration in control and hyperuricemic rats (plasma, urine, kidney)
# Experimental Setup: rat, urine, intravenous, 30 mg/kg, Urinary recovery (cumulative), control rats, 10 min after iv metformin 30 mg/kg, mean n=3
Readout Type: dose excreted at 10 min (%)

CN(C)C(=N)N=C(N)N; 17.8

====

# Measurement Notes: Pharmacokinetic study after intravenous administration in control and hyperuricemic rats (plasma, urine, kidney)
# Experimental Setup: rat, plasma and urine, iv, 30 mg/kg, CLR, hyperuricemic rats; iv metformin 30 mg/kg; individual rat
Readout Type: CL renal (mL/min/kg)

CN(C)C(=N)N=C(N)N; 16.8

====

# Measurement Notes: Pharmacokinetic study after intravenous administration in control and hyperuricemic rats (plasma, urine, kidney)
# Experimental Setup: rat, urine, intravenous, 30 mg/kg, Urinary recovery (cumulative), control rats, 30 min after iv metformin 30 mg/kg, mean n=3
Readout Type: dose excreted at 30 min (%)

CN(C)C(=N)N=C(N)N; 41.2

====

# Measurement Notes: Pharmacokinetic study after intravenous administration in control and hyperuricemic rats (plasma, urine, kidney)
# Experimental Setup: rat, plasma, iv, AUC0-4, hyperuricemic rats; iv metformin 30 mg/kg or cephalexin 10 mg/kg, creatinine endogenous; mean n=3
# Lookup of reported AUC(0-t) keyed by entry
Readout Type: AUC(0-t) (µM·h)

CN(C)C(=N)N=C(N)N; 102
CN1CC(=O)NC1=N; 163

====

# Measurement Notes: Pharmacokinetic study after intravenous administration in control and hyperuricemic rats (plasma, urine, kidney);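 also: Pentobarbital-anesthetized rats with cannulated bladder, jugular plasma, timed urine and saline kidney homogenate assayed by HPLC or LC-MS/MS, Kp as kidney over plasma level at 4 h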
# Experimental Setup: rat, urine, intravenous, Urinary Recovery, control rats; iv metformin 30 mg/kg or cephalexin 10 mg/kg; mean n=3
Readout Type: dose excreted

CN(C)C(=N)N=C(N)N [Metformin, metformin]; 74.5%

Cited source for all entries: paper PMC6450621
